# assay.protocol: Aqueous solubility in 50 mM citrate buffer at pH 4
# Format: physicochemical
measurement.kind: solubility

Item: CC(C)(C)CC[C@@]1(C)C(=O)C(C2=NS(=O)(=O)c3cc(NS(C)(=O)=O)ccc3N2)=C([O-])c2ccccc21.[Na+] | solubility: < 0.2 µg/mL

* * *

Field: microsomal CLint. Provide a value for each of the molecules that follow.
# assay.protocol: Metabolic stability in human liver microsomes assessed as intrinsic clearance
# Assay type: ADME, Microsome
One number for each entry, in µL/min/mg.

>>> value_measured("CC(C)(C)CC[C@@]1(C)C(=O)C(C2=NS(=O)(=O)c3cc(NS(C)(=O)=O)ccc3N2)=C([O-])c2ccccc21.[Na+]")
23.6

Item: CC(C)CC[C@@]1(C)C(=O)C(C2=NS(=O)(=O)c3cc(NS(C)(=O)=O)ccc3N2)=C([O-])c2ccccc21.[Na+] | microsomal CLint: 29.6

* * *

# assay.protocol: AUC in rat at 5 mg/kg, po
# Format: ADME, organism-based
# Set-up: dose 5 mg/kg, route oral
# stated.conditions: plasma
measurement.kind: AUC (ng·h/mL)
Numbers only, in ng·h/mL.

Item: CC(C)(C)CC[C@@]1(C)C(=O)C(C2=NS(=O)(=O)c3cc(NS(C)(=O)=O)ccc3N2)=C([O-])c2ccccc21.[Na+] | AUC: 11500

* * *

Field: EC50. Provide a value for each of the compounds that follow.
# Tested on: Hepatitis C virus
# assay.protocol: Antiviral activity against HCV isolate Con1 in human Huh7 cells assessed as reduction in viral RNA after 4 days by RT-PCR
# stated.conditions: isolate Con1, Huh-7, 96 h
Give bare numbers, in nM.

>>> value_measured("CC(C)(C)CC[C@@]1(C)C(=O)C(C2=NS(=O)(=O)c3cc(NS(C)(=O)=O)ccc3N2)=C([O-])c2ccccc21.[Na+]")
2
>>> value_measured("COc1ccc2c(O[C@@H]3C[C@H]4C(=O)N[C@]5(C(=O)O)C[C@H]5/C=C\\CCCCC[C@H](NC(=O)OC5CCCC5)C(=O)N4C3)cc(-c3csc(NC(C)C)n3)nc2c1")
3

// next entry
Item: CC(C)CC[C@@]1(C)C(=O)C(C2=NS(=O)(=O)c3cc(NS(C)(=O)=O)ccc3N2)=C([O-])c2ccccc21.[Na+] | EC50: 3

* * *

Field: Kp at 6 h. Provide a value for each of the molecules that follow.
# assay.protocol: Ratio of drug level in liver to plasma in rat at 5 mg/kg, po after 6 hrs
# Assay type: ADME, organism-based
# Set-up: dose 5 mg/kg, route oral
Numbers only.

>>> value_measured("CC(C)(C)CC[C@@]1(C)C(=O)C(C2=NS(=O)(=O)c3cc(NS(C)(=O)=O)ccc3N2)=C(O)c2ccccc21")
17

// next entry
Item: CC(C)CC[C@@]1(C)C(=O)C(C2=NS(=O)(=O)c3cc(NS(C)(=O)=O)ccc3N2)=C(O)c2ccccc21 | Kp at 6 h: 17

* * *

Field: AUC. Provide a value for each of the compounds that follow.
# assay.protocol: AUC in rat at 5 mg/kg, iv
# Assay type: ADME, organism-based
# Parameters: dose 5 mg/kg, route intravenous
# stated.conditions: plasma
Give bare numbers, in ng·h/mL.

>>> value_measured("CC(C)(C)CC[C@@]1(C)C(=O)C(C2=NS(=O)(=O)c3cc(NS(C)(=O)=O)ccc3N2)=C([O-])c2ccccc21.[Na+]")
14900

// next entry
Item: CC(C)CC[C@@]1(C)C(=O)C(C2=NS(=O)(=O)c3cc(NS(C)(=O)=O)ccc3N2)=C([O-])c2ccccc21.[Na+] | AUC: 5200

* * *

# assay.protocol: Drug level in rat liver at 5 mg/kg, po after 12 hrs
# Assay type: ADME, organism-based
# Design: dose 5 mg/kg, route oral
# stated.conditions: read-out: Drug uptake
Field: concentration at 12 h. Provide a value for each of the compounds that follow.
Answers are plain numbers, in ng/g.

>>> value_measured("CC(C)CC[C@@]1(C)C(=O)C(C2=NS(=O)(=O)c3cc(NS(C)(=O)=O)ccc3N2)=C([O-])c2ccccc21.[Na+]")
1430
>>> value_measured("CC(C)(C)CC[C@@]1(C)C(=O)C(C2=NS(=O)(=O)c3cc(NS(C)(=O)=O)ccc3N2)=C([O-])c2ccccc21.[Na+]")
4190

Provide concentration at 12 h for all items below, preserving their order.
1. CC(C)(C)CC[C@@]1(C)C(=O)C(C2=NS(=O)(=O)c3cc(NS(C)(=O)=O)ccc3N2)=C(O)c2ccccc21
2. CC(C)CC[C@@]1(C)C(=O)C(C2=NS(=O)(=O)c3cc(NS(C)(=O)=O)ccc3N2)=C(O)c2ccccc21

[4190, 1430]

* * *

# assay.protocol: Cmax in rat at 5 mg/kg, po
# Format: ADME, organism-based
# Parameters: dose 5 mg/kg, route oral
# stated.conditions: in vivo
measurement.kind: Cmax (ng/mL)
One number for each entry, in ng/mL.

Item: CC(C)(C)CC[C@@]1(C)C(=O)C(C2=NS(=O)(=O)c3cc(NS(C)(=O)=O)ccc3N2)=C([O-])c2ccccc21.[Na+] | Cmax: 890

* * *

# assay.protocol: Terminal phase volume of distribution in dog at 2.5 mg/kg, iv
# Assay type: ADME, organism-based, Canis lupus familiaris
# Design: dose 2.5 mg/kg, route intravenous
# stated.conditions: in vivo, read-out: Vbeta
measurement.kind: Vd (L/kg)
One number for each entry, in L/kg.

Item: CC(C)(C)CC[C@@]1(C)C(=O)C(C2=NS(=O)(=O)c3cc(NS(C)(=O)=O)ccc3N2)=C([O-])c2ccccc21.[Na+] | Vd: 0.46

* * *

# assay.protocol: Metabolic stability in dog liver microsomes assessed as intrinsic clearance
# Type: ADME, Canis lupus familiaris, Microsome
Field: microsomal CLint. Provide a value for each of the compounds that follow.
One number for each entry, in µL/min/mg.

>>> value_measured("CC(C)CC[C@@]1(C)C(=O)C(C2=NS(=O)(=O)c3cc(NS(C)(=O)=O)ccc3N2)=C([O-])c2ccccc21.[Na+]")
3.5

Item: CC(C)(C)CC[C@@]1(C)C(=O)C(C2=NS(=O)(=O)c3cc(NS(C)(=O)=O)ccc3N2)=C([O-])c2ccccc21.[Na+] | microsomal CLint: 2.4

* * *

# assay.protocol: Cmax in dog at 2.5 mg/kg, po
# Format: ADME, organism-based, Canis lupus familiaris
# Design: dose 2.5 mg/kg, route oral
# stated.conditions: in vivo
measurement.kind: Cmax
Don't forget the unit after the number, please.

Item: CC(C)(C)CC[C@@]1(C)C(=O)C(C2=NS(=O)(=O)c3cc(NS(C)(=O)=O)ccc3N2)=C([O-])c2ccccc21.[Na+] | Cmax: 5700 ng/mL

* * *

# assay.protocol: Oral bioavailability in rat at 5 mg/kg
# Assay type: ADME, organism-based
# stated.conditions: in vivo
measurement.kind: bioavailability (%)
Answers are plain numbers, in %.

Item: CC(C)(C)CC[C@@]1(C)C(=O)C(C2=NS(=O)(=O)c3cc(NS(C)(=O)=O)ccc3N2)=C([O-])c2ccccc21.[Na+] | bioavailability: 77.3

* * *

Field: concentration at 12 h. Provide a value for each of the compounds that follow.
# assay.protocol: Plasma concentration in rat at 5 mg/kg, po after 12 hrs
# Assay type: ADME, organism-based
# Parameters: dose 5 mg/kg, route oral

>>> value_measured("CC(C)(C)CC[C@@]1(C)C(=O)C(C2=NS(=O)(=O)c3cc(NS(C)(=O)=O)ccc3N2)=C(O)c2ccccc21")
"320 nM"

// next entry
Item: CC(C)CC[C@@]1(C)C(=O)C(C2=NS(=O)(=O)c3cc(NS(C)(=O)=O)ccc3N2)=C(O)c2ccccc21 | concentration at 12 h: 135 nM

* * *

# assay.protocol: Metabolic stability in monkey liver microsomes assessed as intrinsic clearance
# Type: ADME, Macaca mulatta, Microsome
# stated.conditions: rhesus monkey
measurement.kind: microsomal CLint (µL/min/mg)
Numbers only, in µL/min/mg.

Provide microsomal CLint for all items below, preserving their order.
1. CC(C)(C)CC[C@@]1(C)C(=O)C(C2=NS(=O)(=O)c3cc(NS(C)(=O)=O)ccc3N2)=C([O-])c2ccccc21.[Na+]
2. CC(C)CC[C@@]1(C)C(=O)C(C2=NS(=O)(=O)c3cc(NS(C)(=O)=O)ccc3N2)=C([O-])c2ccccc21.[Na+]

[14.4, 62]

* * *

# assay.protocol: AUC in dog at 2.5 mg/kg, iv
# Assay type: ADME, organism-based, Canis lupus familiaris
# Parameters: dose 2.5 mg/kg, route intravenous
# stated.conditions: plasma
measurement.kind: AUC (µg·h/mL)
One number for each entry, in µg·h/mL.

Item: CC(C)(C)CC[C@@]1(C)C(=O)C(C2=NS(=O)(=O)c3cc(NS(C)(=O)=O)ccc3N2)=C([O-])c2ccccc21.[Na+] | AUC: 116

FYI, the data here is from ChEMBL document CHEMBL1152770.
